# assay.system: Progesterone receptor (Homo sapiens); further: assay procedure not described here
# Sequence (P06401 whole entry): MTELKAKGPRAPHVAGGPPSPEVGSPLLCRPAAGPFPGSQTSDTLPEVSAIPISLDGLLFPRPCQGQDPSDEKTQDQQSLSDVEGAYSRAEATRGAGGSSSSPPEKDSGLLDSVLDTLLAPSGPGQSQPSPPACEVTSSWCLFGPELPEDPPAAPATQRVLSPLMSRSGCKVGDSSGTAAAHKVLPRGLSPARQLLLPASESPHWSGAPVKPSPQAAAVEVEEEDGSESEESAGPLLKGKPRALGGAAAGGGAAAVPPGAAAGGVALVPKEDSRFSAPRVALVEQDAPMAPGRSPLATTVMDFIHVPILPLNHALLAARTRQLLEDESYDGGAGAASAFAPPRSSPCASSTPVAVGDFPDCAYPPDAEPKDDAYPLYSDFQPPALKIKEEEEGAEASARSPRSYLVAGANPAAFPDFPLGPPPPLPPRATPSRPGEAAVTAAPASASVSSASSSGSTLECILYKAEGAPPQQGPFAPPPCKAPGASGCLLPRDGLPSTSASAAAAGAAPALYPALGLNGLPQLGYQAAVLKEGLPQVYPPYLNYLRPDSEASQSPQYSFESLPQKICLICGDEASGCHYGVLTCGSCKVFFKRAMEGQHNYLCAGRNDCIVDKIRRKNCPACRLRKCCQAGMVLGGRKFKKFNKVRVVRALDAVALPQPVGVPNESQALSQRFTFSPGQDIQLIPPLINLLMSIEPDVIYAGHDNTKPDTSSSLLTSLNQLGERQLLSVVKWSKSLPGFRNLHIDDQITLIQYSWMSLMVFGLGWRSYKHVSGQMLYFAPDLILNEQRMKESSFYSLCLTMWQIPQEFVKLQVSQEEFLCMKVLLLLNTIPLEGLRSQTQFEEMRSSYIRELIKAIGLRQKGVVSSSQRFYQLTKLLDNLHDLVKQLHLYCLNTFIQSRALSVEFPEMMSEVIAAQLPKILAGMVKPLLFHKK
# Assay type: functional
measurement.label: AC50

                                   compound  measurement_label  observed
0  COc1cccc(N(C)C(=S)Oc2ccc3c(c2)CCCC3)n1 [LIRANAFTATE]               AC50   > 30 µM
1     Cc1ccc2c(-c3ccccc3)nc(=O)n(C(C)C)c2c1               AC50   > 30 µM
2  NC(=O)c1ncn([C@@H]2O[C@H](CO)[C@@H](O)[C@H]2O)n1               AC50   > 10 µM
3  CC(=O)OCC(=O)[C@@]1(O)CC[C@H]2[C@@H]3CCC4=CC(=O)CC[C@]4(C)C3=CC[C@@]21C [ANECORTAVE ACETATE]               AC50   > 30 µM
4  CCCNC(C)C(=O)Nc1ccccc1C (centres undefined)               AC50    3.9 µM
5  CN1c2ccccc2C(NCCCCCCC(=O)O)c2ccc(Cl)cc2S1(=O)=O (centres undefined)               AC50   > 30 µM
6  CNC(=O)c1cc(Oc2ccc(NC(=O)Nc3ccc(Cl)c(C(F)(F)F)c3)c(F)c2)ccn1               AC50   > 30 µM
7  N#Cc1ccccc1-c1cc(-c2ccccn2)cn(-c2ccccc2)c1=O               AC50   > 30 µM
8                    CC(C)C[C@H](CN)CC(=O)O               AC50   > 30 µM
